Source of measurements: PubChem BioAssay (NCI)

System: KM12 colon
assay: NCI tumour cell line growth inhibition, 48 h; in the data active means GI50 below about 0.43 µM; inactive means the rest
Mark one answer only. Choices: active, inactive

Request: Dear colleague, could you share the recorded outcome for C=C(C)[C@@H]1CC[C@]2(C(=O)O)CC[C@]3(C)[C@H](CC[C@@H]4[C@@]5(C)C[C@@H](CC#Cc6ccc(Br)cc6)C(=O)C(C)(C)[C@@H]5CC[C@]43C)[C@@H]12 when you have a moment?
Result: inactive

Request: Dear colleague, could you share the recorded outcome for CC1CC(C)/C(=N/NC(N)=O)C(C(O)CC2CCC(=O)NC2=O)C1 (configuration not stated) when you have a moment?
Result: inactive

Request: Dear colleague, could you share the recorded outcome for CCCCCCCCCCCCCC(=O)OC(/C=C/C(C)C)C(O)C(O)C(OC)C(=O)NC1CCCCNC1=O (configuration not stated) when you have a moment?
Result: inactive

Request: Dear colleague, could you share the recorded outcome for COc1cc(C2CC(c3ccc(Nc4ccnc5cc(Cl)ccc45)cc3)=NN2C=O)cc(OC)c1OC (configuration not stated) when you have a moment?
Result: inactive

Request: Dear colleague, could you share the recorded outcome for COc1cc(/C=C/c2sc3ccccc3[n+]2C)ccc1N(C)C when you have a moment?
Result: inactive

Request: Dear colleague, could you share the recorded outcome for C/C1=C\CC[C@@]2(C)O[C@@H]2C[C@@H]2[C@H](C/C(C)=C/CC1)OC(=O)C21CCN=N1 (some centres not stated) when you have a moment?
Result: inactive

Request: Dear colleague, could you share the recorded outcome for O=C(N1CCC(CN=c2cc3n(-c4ccc(Cl)cc4)c4ccccc4nc-3cc2Nc2ccc(Cl)cc2)CC1)N1CC1 when you have a moment?
Result: inactive

Request: Dear colleague, could you share the recorded outcome for COc1ccc(Cn2cc3c(c2-c2ccc(O)cc2)CCc2cnoc2-3)cc1 when you have a moment?
Result: active

Request: Dear colleague, could you share the recorded outcome for O=C1/C(=C/c2ccc(Cl)cc2)CN(Cc2cn(CCNc3ccnc4cc(Cl)ccc34)nn2)C/C1=C\c1ccc(Cl)cc1 when you have a moment?
Result: active

Request: Dear colleague, could you share the recorded outcome for COc1cc(-n2cc(-c3ccc(F)cc3)[nH]c2=S)cc(OC)c1OC when you have a moment?
Result: inactive

Request: Dear colleague, could you share the recorded outcome for O=c1oc2ccc(F)cc2c(=O)n1-c1ccc(Cl)cc1F when you have a moment?
Result: inactive

Request: Dear colleague, could you share the recorded outcome for O=C(Nc1cccnc1)c1cccc([N+](=O)[O-])c1 when you have a moment?
Result: inactive

Request: Dear colleague, could you share the recorded outcome for O=C(Nc1ccc(Cl)cc1)c1ccc([N+](=O)[O-])o1 when you have a moment?
Result: inactive

Request: Dear colleague, could you share the recorded outcome for CC1(C)N=C(N)N=C(N)N1c1ccc(OCC(=O)N2CCOCC2)c(Cl)c1 when you have a moment?
Result: inactive

Request: Dear colleague, could you share the recorded outcome for CO/N=C(\COc1ccc2c(c1)oc(=O)c1cc(OC)ccc12)c1cccc(OC)c1 when you have a moment?
Result: inactive

Request: Dear colleague, could you share the recorded outcome for CO/N=C(\COc1ccc2c(c1)oc(=O)c1cc(OC)ccc12)c1ccc(F)cc1 when you have a moment?
Result: inactive

Request: Dear colleague, could you share the recorded outcome for Cn1ccnc1C(=O)/C=C/c1ccc(C(=O)Nc2ccccc2O)cc1 when you have a moment?
Result: inactive
